Test system: SW480
Assay: Cytotoxicity against human SW480 cells after 72 hrs by MTT assay
Type: functional, cell-based
Details: SW480, 72 h
pIC50: −log10 of the molar value.

- chem_smiles: "CC(C)Cn1sc2ccccc2c1=O"
  pIC50: 4.32
- chem_smiles: "C[C@H](c1ccccc1)n1sc2ccccc2c1=O"
  pIC50: 4.37
- chem_smiles: "O=c1c2ccccc2sn1C1CCCCC1"
  pIC50: 4.31
- chem_smiles: "C[C@@H](c1ccccc1)n1sc2ccccc2c1=O"
  pIC50: 4.38
- chem_smiles: "O=c1c2ccccc2sn1Cc1ccc2c(c1)OCO2"
  pIC50: 4.33
